# maps each entry to its IC50 (µg/mL), pseudovirus neutralization
biological target: HIV-1 IAVI-C3 Env (pseudovirus) (HIV-1 isolate IAVI-C3); assay: cell-based or functional assay
Give just the number in µg/mL; leave the unit off.

These recorded examples may help you get a feel for the data.
# binder, outputUnit, IC50 (µg/mL), pseudovirus neutralization
data = [
    ("1496_C09 (PG9) (TCN-109) (antibody, V domains shown) VH: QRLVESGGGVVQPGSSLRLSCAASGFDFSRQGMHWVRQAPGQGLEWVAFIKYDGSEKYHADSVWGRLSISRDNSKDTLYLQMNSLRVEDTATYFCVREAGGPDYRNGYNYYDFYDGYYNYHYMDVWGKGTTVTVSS VL: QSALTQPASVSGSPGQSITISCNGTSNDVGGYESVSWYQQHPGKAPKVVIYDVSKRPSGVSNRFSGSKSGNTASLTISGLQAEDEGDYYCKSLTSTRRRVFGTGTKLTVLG", "µg/mL", 12.9),
    ("1495_C14 (PGC14) (antibody, human IgG1, lambda, V domains shown) VH: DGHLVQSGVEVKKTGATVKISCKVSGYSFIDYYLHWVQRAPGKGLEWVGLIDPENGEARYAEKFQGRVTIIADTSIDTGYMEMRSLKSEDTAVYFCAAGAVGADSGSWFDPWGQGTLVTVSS VL: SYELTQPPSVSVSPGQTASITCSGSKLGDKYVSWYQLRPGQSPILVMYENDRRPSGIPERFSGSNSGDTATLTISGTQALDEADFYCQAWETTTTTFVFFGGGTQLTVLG", "µg/mL", 9.5),
]

stdin: Would you mind telling me what IC50 (µg/mL), pseudovirus neutralization value was observed for 1443_C16 (PG16) (TCN-116) (antibody, V domains shown) VH: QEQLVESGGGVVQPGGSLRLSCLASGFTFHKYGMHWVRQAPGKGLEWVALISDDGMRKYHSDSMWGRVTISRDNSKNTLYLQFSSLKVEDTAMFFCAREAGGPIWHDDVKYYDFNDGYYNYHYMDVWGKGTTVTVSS VL: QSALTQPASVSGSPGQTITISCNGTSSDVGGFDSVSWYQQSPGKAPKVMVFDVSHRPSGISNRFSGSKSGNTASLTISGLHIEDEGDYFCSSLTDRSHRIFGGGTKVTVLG ?
stdout: 14.8
